Assay: MTT cell viability assay, Hep G2 cells (serum-free DMEM)
Settings: human, Hep G2 cells, Cell viability, LOV 2 μM, 72 hr
recordedEndpoint: viability at 72 h, 2 μM (%)

substanceSmiles | recordedEndpoint | measurementUnit | endpointResult
CC[C@H](C)C(=O)O[C@H]1C[C@@H](C)C=C2C=C[C@H](C)[C@H](CC[C@@H]3C[C@@H](O)CC(=O)O3)[C@H]21 | viability at 72 h, 2 μM | % | 86.2

====

Assay: MTT cell viability assay, Hep G2 cells (serum-free DMEM)
Conditions: human, Hep G2 cells, Cell viability, taxol 2 nM, 72 hr, Table 9
recordedEndpoint: viability at 72 h, 2 nM (%)

substanceSmiles | recordedEndpoint | measurementUnit | endpointResult
CC(=O)O[C@H]1C(=O)[C@@]2(C)[C@H]([C@H](OC(=O)c3ccccc3)[C@]3(O)C[C@H](OC(=O)[C@H](O)[C@@H](NC(=O)c4ccccc4)c4ccccc4)C(C)=C1C3(C)C)[C@]1(OC(C)=O)CO[C@@H]1C[C@@H]2O | viability at 72 h, 2 nM | % | 89.2

====

Test: MTT cell viability assay, Hep G2 cells (serum-free DMEM)
Settings: human, Hep G2 cells, Cell viability, lovastatin 10 μM alone, 96 hr, Table 10

substanceSmiles | viability at 96 h, 10 μM [%]
CC[C@H](C)C(=O)O[C@H]1C[C@@H](C)C=C2C=C[C@H](C)[C@H](CC[C@@H]3C[C@@H](O)CC(=O)O3)[C@H]21 | 51.9

====

Assay: MTT cell viability assay, Hep G2 cells (serum-free DMEM)
Conditions: human, Hep G2 cells, Cell viability, DOX 0.1 μM, 72 hr

molecule | viability at 72 hr, 0.1 μM
COc1cccc2c1C(=O)c1c(O)c3c(c(O)c1C2=O)C[C@@](O)(C(=O)CO)C[C@@H]3O[C@H]1C[C@H](N)[C@H](O)[C@H](C)O1 [DOX, doxorubicin] | 99.9%

====

Experiment: MTT cell viability assay, Hep G2 cells (serum-free DMEM)
Conditions: human, Hep G2 cells, Cell viability, taxol 5 nM, 48 hr
recordedEndpoint: viability at 48 h, 5 nM (%)

substanceSmiles | endpointResult
CC(=O)O[C@H]1C(=O)[C@@]2(C)[C@H]([C@H](OC(=O)c3ccccc3)[C@]3(O)C[C@H](OC(=O)[C@H](O)[C@@H](NC(=O)c4ccccc4)c4ccccc4)C(C)=C1C3(C)C)[C@]1(OC(C)=O)CO[C@@H]1C[C@@H]2O | 72.9

====

Test: MTT cell viability assay, Hep G2 cells (serum-free DMEM)
Conditions: human, Hep G2 cells, Cell viability, DOX 2 μM, 72 hr

substanceSmiles | viability at 72 hr, 2 μM [%]
COc1cccc2c1C(=O)c1c(O)c3c(c(O)c1C2=O)C[C@@](O)(C(=O)CO)C[C@@H]3O[C@H]1C[C@H](N)[C@H](O)[C@H](C)O1 | 1.9

====

Assay: MTT cell viability assay, Hep G2 cells (serum-free DMEM)
Settings: human, Hep G2 cells, Cell viability, LOV 50 μM 48 hr, then LOV 50 μM without MVA another 48 hr

substanceSmiles | viability at 96 h, 50 µM
CC[C@H](C)C(=O)O[C@H]1C[C@@H](C)C=C2C=C[C@H](C)[C@H](CC[C@@H]3C[C@@H](O)CC(=O)O3)[C@H]21 | 12.7%
